Test: ABTS radical scavenging assay
Conditions: 5 min, 734 nm
value_type: IC50 ABTS

These recorded examples may help you get a feel for the data.
O=c1c2c(O)cc(O)cc2oc2oc3cc(O)ccc3c12: >100 µg/mL
CO[C@H]1[C@H](O)[C@@H](O)[C@@H](O)[C@H](O)[C@@H]1O: >100 µg/mL
CCCCCCCCCCCCCCCC: >100 µg/mL
O=C1O[C@H]([C@@H](O)CO)C(O)=C1O [Ascorbic acid, reference compound]: 1.28 ± 0.81 µg/mL
CC[C@H](/C=C/[C@@H](C)[C@H]1CC[C@H]2[C@@H]3CC=C4C[C@@H](O[C@@H]5O[C@H](CO)[C@@H](O)[C@H](O)[C@H]5O)CC[C@]4(C)[C@H]3CC[C@]12C)C(C)C [Compound 7, stigmasterol glucoside]: >100 µg/mL
O=c1c(-c2ccc(O)cc2)coc2cc(O[C@@H]3O[C@H](CO)[C@@H](O)[C@H](O)[C@H]3O)cc(O)c12: 91.02 ± 1.33 µg/mL

With those in mind, consider the next molecule.
Per the record, `CCCCCCCCCCCCCCCCCCCCCCCO` has IC50 ABTS of >100 µg/mL

----------
Target: soybeans 15-LOX (Glycine max, UniProt P08170)
Construct: purchased Merck, Darmstadt, Germany
Sequence (P08170 whole entry): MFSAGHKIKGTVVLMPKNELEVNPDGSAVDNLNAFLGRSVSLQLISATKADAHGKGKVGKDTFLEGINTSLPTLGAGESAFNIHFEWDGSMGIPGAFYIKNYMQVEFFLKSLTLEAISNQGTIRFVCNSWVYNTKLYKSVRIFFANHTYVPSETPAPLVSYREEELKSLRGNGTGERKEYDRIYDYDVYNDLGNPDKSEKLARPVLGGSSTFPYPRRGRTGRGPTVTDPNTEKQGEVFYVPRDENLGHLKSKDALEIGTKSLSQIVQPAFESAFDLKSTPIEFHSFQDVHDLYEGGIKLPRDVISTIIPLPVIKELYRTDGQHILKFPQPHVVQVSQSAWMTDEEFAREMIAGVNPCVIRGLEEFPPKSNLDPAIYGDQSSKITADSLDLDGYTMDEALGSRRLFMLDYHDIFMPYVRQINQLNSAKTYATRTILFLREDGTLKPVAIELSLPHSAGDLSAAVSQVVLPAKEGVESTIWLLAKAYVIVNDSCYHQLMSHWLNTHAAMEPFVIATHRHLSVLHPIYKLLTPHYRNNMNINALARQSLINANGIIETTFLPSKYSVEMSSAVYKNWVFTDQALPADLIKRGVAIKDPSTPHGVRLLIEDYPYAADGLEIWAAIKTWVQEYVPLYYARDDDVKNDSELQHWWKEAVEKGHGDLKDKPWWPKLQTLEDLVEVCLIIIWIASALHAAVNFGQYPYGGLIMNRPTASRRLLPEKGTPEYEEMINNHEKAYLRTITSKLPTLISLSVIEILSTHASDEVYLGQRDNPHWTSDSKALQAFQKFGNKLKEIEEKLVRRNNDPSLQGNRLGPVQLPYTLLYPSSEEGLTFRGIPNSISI
Test: 15-lipoxygenase enzyme inhibitory assay (FOX)
Type: biochemical, soybean
Settings: linoleic acid substrate, FOX reagent, 560 nm; read-out: IC50 15-LOX (converted)
Each entry below carries its recorded IC50.

O=c1c(-c2ccc(O)cc2)coc2cc(O[C@@H]3O[C@H](CO)[C@@H](O)[C@H](O)[C@H]3O)cc(O)c12: 414 µM
CCCCCCCCCCCCCCCC: > 883 µM
CO[C@H]1[C@H](O)[C@@H](O)[C@@H](O)[C@H](O)[C@@H]1O: > 1030 µM

Per the record, `O=c1c2c(O)cc(O)cc2oc2oc3cc(O)ccc3c12` has IC50 of > 704 µM

Per the record, CC[C@H](/C=C/[C@@H](C)[C@H]1CC[C@H]2[C@@H]3CC=C4C[C@@H](O[C@@H]5O[C@H](CO)[C@@H](O)[C@H](O)[C@H]5O)CC[C@]4(C)[C@H]3CC[C@]12C)C(C)C [Compound 7, stigmasterol glucoside] has IC50 of > 348 µM

Per the record, `CCCCCCCCCCCCCCCCCCCCCCCO` has IC50 of > 587 µM

----------
Molecular target: soybeans 15-LOX (Glycine max)
Construct: purchased Merck, Darmstadt, Germany
Experiment: 15-lipoxygenase enzyme inhibitory assay (FOX)
Type: biochemical, soybean
value_type: pIC50
Here pIC50 is given on a logarithmic scale as minus log10 of the concentration in mol/L.

Per the record, O=C(O)c1cc(O)c(O)c(O)c1 [Gallic acid, reference compound] has pIC50 of 3.84
